system: 2D cultured cells (SSC, Sertoli, Leydig at the same cell ratios and density of 3D organoids); test: Drug toxicity test, CellTiter-Glo ATP viability, 2D cultured testicular cells; format: cell-based, human; conditions: Homo sapiens, Leydig; 2D culture, 48 hours exposure, ATP content (CellTiter-Glo)
Recorded measurements of IC50, one per entry
API: value field is a number in µM; no unit string.

Some solved cases for reference:
{"columns": ["MOLECULE", "EXPERIMENTAL_READOUT", "REPORTED_VALUE"],
 "data": [
  ["COc1cc([C@@H]2c3cc4c(cc3[C@@H](O[C@@H]3O[C@@H]5CO[C@@H](C)O[C@H]5[C@H](O)[C@H]3O)[C@H]3COC(=O)[C@H]23)OCO4)cc(OC)c1O [Etoposide]", "IC50", 43.5],
  ["COc1cccc2c1C(=O)c1c(O)c3c(c(O)c1C2=O)C[C@@](O)(C(=O)CO)C[C@@H]3O[C@H]1C[C@H](N)[C@H](O)[C@H](C)O1 [Doxorubicin]", "IC50", 0.19]
]}

Data request: Which IC50 value is on record for CS(=O)(=O)OCCCCOS(C)(=O)=O [Busulfan] ?
Data returned: 328

Measured values drawn from patent US10993433B2 for this set.
